System: ECa-109 cell line
ASSAY NAME: Antiproliferative activity against human ECa-109 cells assessed as cell growth inhibition measured after 72 hrs by MTT assay
Type: functional, cell-based
ASSAY SETUP: ECa-109, 72 h
METRIC NAME: IC50 (µM)
Respond numerically; units are µM and should not be typed.

Inquiry: Form field: reported IC50 of `C[C@H]1O[C@@H](n2cnc3c(N)nc(F)nc32)[C@H](O)[C@H]1OCP(=O)([O-])[O-].[Na+].[Na+]`
Reply text: 2.57

---

System: MDA-MB-231
ASSAY NAME: Antiproliferative activity against human MDA-MB-231 cells assessed as growth inhibition measured after 72 hrs by MTT assay
Type: functional, cell-based
ASSAY SETUP: MDA-MB-231, 72 h
METRIC NAME: IC50
Dear colleague, please send the value followed by its unit.

Inquiry: # query: IC50 of entry `C[C@H]1O[C@@H](n2cnc3c(N)nc(F)nc32)[C@H](O)[C@H]1OCP(=O)([O-])[O-].[Na+].[Na+]`
Reply text: 391 nM

---

Tested on: GES1
ASSAY NAME: Antiproliferative activity against human GES1 cells assessed as growth inhibition measured after 72 hrs by MTT assay
Assay type: functional, cell-based
ASSAY SETUP: GES1, 72 h
METRIC NAME: pIC50
Note on units: pIC50 is unitless, being -log10 of a concentration expressed in mol/L.

Inquiry: Need pIC50, item `C[C@H]1O[C@@H](n2cnc3c(N)nc(F)nc32)[C@H](O)[C@H]1OCP(=O)([O-])[O-].[Na+].[Na+]`
Reply text: 5.29
